Test system: U251 CNS
Assay: NCI-60 one-dose screen, 48 h (100 = growth as untreated, 0 = no growth, -100 = all killed)
Details: 10 µM
Procedure: Growth inhibition of the U251 human tumor cell line is measured as a screen for anti-cancer activity. Cells are grown in 96 well plates and exposed to the test compound for 48 hours. Compounds are tested at a single concentration, which is 10^-5 M for most compounds. The reported endpoint is percent growth (GI% or GIPRCNT), where numbers from 0 - 100% represent growth inhibition, and numbers from -100% - 0 represent cell death. For example, a value of 40 represents 60% growth inhibition. […]
The panel holds about 83,000 compounds, 20% with a hit somewhere; the sample as a whole holds those more often.
Use yes when the recorded growth is no lower than 60%; use no when it is lower.

- compound: "O=C1OCC2=C1C(c1cccc(Cl)c1)c1cc3c(cc1N2CCO)OCCO3 (stereo unspecified)"
  discrete label: "no"
- compound: "CCN1CCC2(CC1)OC(c1ccccc1)C(c1ccccc1)O2 (stereo unspecified)"
  discrete label: "yes"
- compound: "O=C1NC(=O)c2ncccc21"
  discrete label: "yes"
- compound: "Cc1ccc(NC(=O)CSc2nc3ccccc3c(=O)n2CCc2ccccc2)c(C(=O)O)c1"
  discrete label: "yes"
- compound: "O=C(Nc1cccc(-n2cc(-c3ccncc3)c(-c3ccc(O)c(Cl)c3)n2)c1)c1ccc(Cl)c(Cl)c1"
  discrete label: "no"
- compound: "CC(C)(Cl)CCC1=C(Cl)C(=O)c2ccccc2C1=O"
  discrete label: "no"
- compound: "C=C(C(=O)c1ccccc1)C(NC(C)(C)C)c1ccccc1 (stereo unspecified)"
  discrete label: "no"
- compound: "Cc1ccc(NC(=O)NC2CCCCC2)cc1"
  discrete label: "yes"
- compound: "COc1ccc2c(c1OC)O/C(=C\\c1ncc([N+](=O)[O-])n1C)C2=O"
  discrete label: "no"
- compound: "Cc1cccc2c1O/C(=C\\c1ccc([N+](=O)[O-])o1)C2=O"
  discrete label: "no"

====

System: SW-620 colon
Assay: NCI-60 one-dose screen, 48 h (100 = growth as untreated, 0 = no growth, -100 = all killed)
Settings: 10 µM
The panel holds about 83,000 compounds, 20% with a hit somewhere; the sample as a whole holds those more often.
Use Criterion met when the recorded growth is no lower than 90%; use Criterion not met when it is lower.

- compound: "C(CCCC1=NCCO1)CCCC1=NCCO1"
  discrete label: "Criterion met"
- compound: "C/C(=N\\Nc1nc2ccccc2s1)c1ccncn1"
  discrete label: "Criterion not met"
- compound: "N#CCCN1C/C(=C/c2ccc(Cl)cc2)C(=O)/C(=C/c2ccc(Cl)cc2)C1"
  discrete label: "Criterion not met"
- compound: "CN1c2ccccc2[C@]2(Cc3ccccc3)Cc3ccccc3N[C@H]12"
  discrete label: "Criterion met"
- compound: "CN(C)CCNC(=O)c1cccn2c(=O)c3cc4ccccc4cc3nc12"
  discrete label: "Criterion not met"
- compound: "COc1cc2cc3c(nc2cc1OC)CCN3Cc1ccc(NC(=O)Nc2ccc(F)cc2F)cc1"
  discrete label: "Criterion met"
- compound: "CS(=O)(=O)Nc1cccc(-c2cc(-c3ccccc3Cl)c(C#N)c(N)n2)c1"
  discrete label: "Criterion not met"
- compound: "COc1ccc(N=C2C(=Nc3ccc(OC)cc3)N(c3ccc(N(C)C)cc3)C(=S)N2c2ccc(OC)cc2)cc1"
  discrete label: "Criterion met"
- compound: "Oc1[nH]c2cc(Cl)ccc2c1/C=c1/ccc2c(c1)N=C(c1cc(F)cc(F)c1)N=2"
  discrete label: "Criterion not met"
- compound: "O=C1OCC2=C1C(c1cccc(Cl)c1)c1cc3c(cc1N2CCO)CCC3 (stereo not given)"
  discrete label: "Criterion not met"
